system: human lung adenocarcinoma A549 cells; experiment: WST-8 cytotoxicity assay, A549 cells; assay type: cell-based; details: read-out: IC50 (μM) A549; Table 3; WST-8, 72 h; mean ± SD of triplicate experiments
REPORTED ENDPOINT: IC50 (µM)
Give bare numbers, in µM.

Task item: Consider the compound CCc1c2c(nc3ccc(O)cc13)-c1cc3c(c(=O)n1C2)COC(=O)[C@]3(O)CC [SN-38, reference compound] and give its measured IC50.
Reply: 0.038
